# key: entry, value: pIC50
System: MDA-MB-231 breast cancer cells
Test method notes: Proliferation inhibitory activity assay against MDA-MB-231 breast cancer cells
Type: cell-based
Test parameters: Homo sapiens, 72 hours, CellTiter Glo, relative IC50
pIC50: −log10 of the molar value.

Some entries whose results are on file:
CC1(O)CC2CCC(C1)N2c1cc(NCc2nc3cc(Cl)c(Cl)cc3[nH]2)c2ncc(C(F)(F)F)n2n1 (stereo not drawn) [Example 34]	6.30 to 7.30
FC(F)(F)c1cc2nc(CNc3cc(N4CCOCC4)nn4c(C(F)(F)F)cnc34)[nH]c2cc1C(F)(F)F [Example 81]	6.30 to 7.30

Would you kindly look at the next entry?
Endpoint output: pIC50 of N#CC1CCN(c2cc(NCc3nc4ccc(F)c(F)c4[nH]3)c3ncc(C(F)(F)F)n3n2)CC1 [Example 56] . Value? ≥ 7.30

Source of measurements: patent EP4813991A1
